Every entry's value here was drawn from patent US20250163038A1.

Reported IC50 is given for each of the following compounds.
# TARGET OR SYSTEM: Recombinant human c-Cbl (aa 47-435) (Homo sapiens)
# Sequence (P22681 47-435): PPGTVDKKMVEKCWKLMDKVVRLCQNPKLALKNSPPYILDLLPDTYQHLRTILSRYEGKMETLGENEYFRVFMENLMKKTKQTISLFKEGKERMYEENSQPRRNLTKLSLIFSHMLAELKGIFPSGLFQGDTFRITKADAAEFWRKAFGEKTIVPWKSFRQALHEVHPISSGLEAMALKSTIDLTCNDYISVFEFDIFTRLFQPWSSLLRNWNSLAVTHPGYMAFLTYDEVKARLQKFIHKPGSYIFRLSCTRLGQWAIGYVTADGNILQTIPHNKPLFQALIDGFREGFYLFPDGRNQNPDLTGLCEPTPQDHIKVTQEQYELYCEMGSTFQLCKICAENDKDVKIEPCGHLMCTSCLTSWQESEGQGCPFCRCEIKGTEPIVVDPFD
# PROCEDURE DETAILS: c-Cbl Biochemical Assay (TR-FRET)
# CONDITION PARAMETERS: hc-Cbl Biochemical Assay (TR-FRET); read-out: TR-FRET hcCbl IC50

>  <SMILES RECORD>
Cn1cnnc1-c1cc(F)ccc1-c1cccc(-c2nc3cc(NCCN4CCC4)cc(C(F)(F)F)c3o2)c1

>  <IC50>
200 to 1000 nM

$$$$
>  <SMILES RECORD>
COc1cc(CN[C@@H]2CCC[C@@H]2O)cn2nc(-c3cccc(-c4ccc(F)cc4-c4nncn4C)c3)nc12

>  <IC50>
< 200 nM

$$$$
>  <SMILES RECORD>
Cn1cnnc1-c1cc(F)ccc1-c1cccc(-c2nc3cc(CNC4CC4)cc(C(F)(F)F)c3o2)c1

>  <IC50>
< 200 nM

$$$$
>  <SMILES RECORD>
Cn1cnnc1-c1cc(F)ccc1-c1cc(-c2nc3cc(CO)cc(C(F)(F)F)c3[nH]2)nc(C2CC2)c1

>  <IC50>
< 200 nM

$$$$
>  <SMILES RECORD>
CCN(CC[C@@H](O)C(F)(F)F)Cc1cc(C(F)(F)F)c2oc(-c3cccc(-c4ccc(F)cc4-c4nncn4C)c3)nc2c1

>  <IC50>
< 200 nM

$$$$
>  <SMILES RECORD>
CN(Cc1cc(C(F)(F)F)c2oc(-c3cc(-c4ccc(F)cc4-c4nncn4C)cc(C4CC4)n3)nc2c1)[C@@H]1CCC[C@@H]1O

>  <IC50>
< 200 nM

$$$$
>  <SMILES RECORD>
C[C@H]1CCCN(Cc2cc(C(F)(F)F)c3[nH]c(-c4cccc([C@]5(c6nncn6C)C[C@@H](C)C5)c4)nc3c2)C1

>  <IC50>
10000 to 50000 nM

$$$$

###

As shown below, each of these compounds has a reported IC50 value.
# TARGET OR SYSTEM: Recombinant human Cbl-b (aa 36-427) (Homo sapiens, UniProt Q13191)
# Sequence (Q13191 36-427): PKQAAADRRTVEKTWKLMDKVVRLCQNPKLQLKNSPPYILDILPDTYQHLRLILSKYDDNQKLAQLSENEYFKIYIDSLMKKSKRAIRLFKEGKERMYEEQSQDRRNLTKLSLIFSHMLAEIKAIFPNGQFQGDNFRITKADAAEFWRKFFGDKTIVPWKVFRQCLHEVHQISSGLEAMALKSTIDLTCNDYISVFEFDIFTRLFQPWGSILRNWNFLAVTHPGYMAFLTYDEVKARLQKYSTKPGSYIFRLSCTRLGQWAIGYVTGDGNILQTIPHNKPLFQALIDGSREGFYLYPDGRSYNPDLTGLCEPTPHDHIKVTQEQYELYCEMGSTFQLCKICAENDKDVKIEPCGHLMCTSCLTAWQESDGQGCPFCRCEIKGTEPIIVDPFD
# PROCEDURE DETAILS: Cbl-b Biochemical Assay (TR-FRET)
# CONDITION PARAMETERS: read-out: TR-FRET hCbl-b IC50
ASSAY READOUT: IC50

>  <COMPOUND>
CO[C@@H](CO)c1cc(C(F)(F)F)c2oc(-c3cccc(-c4ccc(F)cc4-c4nncn4C)c3)nc2c1 (single isomer, unassigned) [EG-3]

>  <TARGET OR SYSTEM>
Recombinant human Cbl-b (aa 36-427) (Homo sapiens, UniProt Q13191)

>  <OBSERVED VALUE>
< 200 nM

$$$$
>  <COMPOUND>
COC1(CN[C@@H](C)c2cc(F)c3oc(-c4cc(-c5ccc(F)cc5-c5nncn5C)cc(C5CC5)n4)nc3c2)CCC1 [AFS-2]

>  <TARGET OR SYSTEM>
Recombinant human Cbl-b (aa 36-427) (Homo sapiens, UniProt Q13191)

>  <OBSERVED VALUE>
< 200 nM

$$$$
>  <COMPOUND>
Cn1cnnc1-c1ccccc1-c1cccc(-c2nc3cc(CO)cc(C(F)(F)F)c3o2)c1 [Example F-5]

>  <TARGET OR SYSTEM>
Recombinant human Cbl-b (aa 36-427) (Homo sapiens, UniProt Q13191)

>  <OBSERVED VALUE>
1000 to 10000 nM

$$$$
>  <COMPOUND>
Cn1cnnc1-c1cc(F)ccc1-c1cccc(-c2nc3cc(CN4C[C@@H]5C[C@H]4CO5)cc(C(F)(F)F)c3o2)c1 [IN-2]

>  <TARGET OR SYSTEM>
Recombinant human Cbl-b (aa 36-427) (Homo sapiens, UniProt Q13191)

>  <OBSERVED VALUE>
1000 to 10000 nM

$$$$
>  <COMPOUND>
C[C@H](Cc1nncn1C)c1cccc(-c2nc3cccc(C(F)(F)F)c3[nH]2)c1 [ABD-9]

>  <TARGET OR SYSTEM>
Recombinant human Cbl-b (aa 36-427) (Homo sapiens, UniProt Q13191)

>  <OBSERVED VALUE>
10000 to 50000 nM

$$$$
>  <COMPOUND>
Cn1cnnc1CC1(c2cccc(-c3nc4cc(CN5CC[C@@H](O)C5)cc(C(F)(F)F)c4[nH]3)c2)COC1 [ACB-1]

>  <TARGET OR SYSTEM>
Recombinant human Cbl-b (aa 36-427) (Homo sapiens, UniProt Q13191)

>  <OBSERVED VALUE>
200 to 1000 nM

$$$$
>  <COMPOUND>
Cn1cnnc1-c1cc(F)ccc1-c1cc(-c2nc3cc(CNCC4(O)CCC4)c(F)c(F)c3o2)nc(C2CC2)c1 [AGA-1]

>  <TARGET OR SYSTEM>
Recombinant human Cbl-b (aa 36-427) (Homo sapiens, UniProt Q13191)

>  <OBSERVED VALUE>
< 200 nM

$$$$
>  <COMPOUND>
C[C@@H]1CN(Cc2cc(C(F)(F)F)c3oc(-c4cccc(-c5ccc(F)cc5-c5nncn5C)c4)nc3c2)CCO1 [Example V-1]

>  <TARGET OR SYSTEM>
Recombinant human Cbl-b (aa 36-427) (Homo sapiens, UniProt Q13191)

>  <OBSERVED VALUE>
< 200 nM

$$$$
>  <COMPOUND>
Cn1cnnc1CC1(c2cccc(-c3nc4cccc(C(F)(F)F)c4o3)c2)COC1 [ACO-1]

>  <TARGET OR SYSTEM>
Recombinant human Cbl-b (aa 36-427) (Homo sapiens, UniProt Q13191)

>  <OBSERVED VALUE>
200 to 1000 nM

$$$$
>  <COMPOUND>
Cn1cnnc1-c1cc(F)ccc1-c1cccc(-c2nc3cc(CNCC4(O)CCC4)cc(F)c3o2)c1 [IZ-1]

>  <TARGET OR SYSTEM>
Recombinant human Cbl-b (aa 36-427) (Homo sapiens, UniProt Q13191)

>  <OBSERVED VALUE>
< 200 nM

$$$$
>  <COMPOUND>
Cn1cnnc1-c1cc(F)ccc1-c1cccc(-c2nc3cc(CO)cc(Br)c3o2)c1 [EQ-4]

>  <TARGET OR SYSTEM>
Recombinant human Cbl-b (aa 36-427) (Homo sapiens, UniProt Q13191)

>  <OBSERVED VALUE>
200 to 1000 nM

$$$$
>  <COMPOUND>
Cn1cnnc1-c1cc(F)ccc1-c1cccc(-c2nc3cc(CN4CCCC[C@H]4CO)cc(C(F)(F)F)c3o2)c1 [JB-2]

>  <TARGET OR SYSTEM>
Recombinant human Cbl-b (aa 36-427) (Homo sapiens, UniProt Q13191)

>  <OBSERVED VALUE>
< 200 nM

$$$$
>  <COMPOUND>
COC1(CNC2(c3cc(F)c4oc(-c5cc(-c6ccc(F)cc6-c6nncn6C)cc(C6CC6)n5)nc4c3)CC2)CCC1 [AGO-2]

>  <TARGET OR SYSTEM>
Recombinant human Cbl-b (aa 36-427) (Homo sapiens, UniProt Q13191)

>  <OBSERVED VALUE>
< 200 nM

$$$$
>  <COMPOUND>
Cn1cnnc1-c1cc(F)ccc1-c1ccnc(-c2nc3cc(CN[C@@H]4CCC[C@@H]4O)cc(C(F)(F)F)c3o2)c1 [AEG-8]

>  <TARGET OR SYSTEM>
Recombinant human Cbl-b (aa 36-427) (Homo sapiens, UniProt Q13191)

>  <OBSERVED VALUE>
< 200 nM

$$$$
>  <COMPOUND>
Cn1cnnc1-c1ccccc1-c1cccc(-c2nc3cccc(C(F)(F)F)n3n2)c1 [ABU-2]

>  <TARGET OR SYSTEM>
Recombinant human Cbl-b (aa 36-427) (Homo sapiens, UniProt Q13191)

>  <OBSERVED VALUE>
10000 to 50000 nM

$$$$
>  <COMPOUND>
Cn1cnnc1-c1cc(F)ccc1-c1cccc(-c2cn3ccc(CN[C@@H]4CCC[C@@H]4O)cc3n2)c1 [GO-2]

>  <TARGET OR SYSTEM>
Recombinant human Cbl-b (aa 36-427) (Homo sapiens, UniProt Q13191)

>  <OBSERVED VALUE>
< 200 nM

$$$$
>  <COMPOUND>
O[C@H]1CCC[C@H]1NCc1cc(C(F)(F)F)c2oc(-c3cccc(-c4ccc(F)cc4-c4nnco4)c3)nc2c1 [IG-6]

>  <TARGET OR SYSTEM>
Recombinant human Cbl-b (aa 36-427) (Homo sapiens, UniProt Q13191)

>  <OBSERVED VALUE>
< 200 nM

$$$$
>  <COMPOUND>
COCCN(C)Cc1cc(OC)c2oc(-c3cccc(-c4ccc(F)cc4-c4nncn4C)c3)nc2c1 [GM-2]

>  <TARGET OR SYSTEM>
Recombinant human Cbl-b (aa 36-427) (Homo sapiens, UniProt Q13191)

>  <OBSERVED VALUE>
200 to 1000 nM

$$$$
>  <COMPOUND>
Cn1cnnc1-c1cc(F)ccc1-c1cccc(-c2nc3cc(CNC4(CO)COC4)cc(C(F)(F)F)c3o2)c1 [Example Z-2]

>  <TARGET OR SYSTEM>
Recombinant human Cbl-b (aa 36-427) (Homo sapiens, UniProt Q13191)

>  <OBSERVED VALUE>
< 200 nM

$$$$
>  <COMPOUND>
CCNc1cc(-c2ccc(F)cc2-c2nncn2C)cc(-c2nc3cc(CO)cc(C(F)(F)F)c3o2)n1 [AEL-1]

>  <TARGET OR SYSTEM>
Recombinant human Cbl-b (aa 36-427) (Homo sapiens, UniProt Q13191)

>  <OBSERVED VALUE>
200 to 1000 nM

$$$$
>  <COMPOUND>
Cn1cnnc1-c1cc(F)ccc1-c1cccc(-c2nc3cc(CNCC4(O)CC(F)(F)C4)cc(C(F)(F)F)c3[nH]2)c1 [CK-2]

>  <TARGET OR SYSTEM>
Recombinant human Cbl-b (aa 36-427) (Homo sapiens, UniProt Q13191)

>  <OBSERVED VALUE>
< 200 nM

$$$$
>  <COMPOUND>
Cn1cnnc1-c1cc(F)ccc1-c1cc(-c2nc3cc(CO)cc(C(F)(F)F)c3[nH]2)nc(C2CC2)c1 [ADU-2]

>  <TARGET OR SYSTEM>
Recombinant human Cbl-b (aa 36-427) (Homo sapiens, UniProt Q13191)

>  <OBSERVED VALUE>
< 200 nM

$$$$
>  <COMPOUND>
CC(Cc1nncn1C)c1cccc(-c2nc3ccc(C(=O)N4CCN(C)CC4)c(C(F)(F)F)c3[nH]2)c1 (racemic) [AY-5]

>  <TARGET OR SYSTEM>
Recombinant human Cbl-b (aa 36-427) (Homo sapiens, UniProt Q13191)

>  <OBSERVED VALUE>
10000 to 50000 nM

$$$$
>  <COMPOUND>
Cn1cnnc1-c1cc(F)ccc1-c1cc(-c2nc3cc(CNCC(C)(C)O)cc(F)c3o2)cc(C2CC2)c1 [JQ-1]

>  <TARGET OR SYSTEM>
Recombinant human Cbl-b (aa 36-427) (Homo sapiens, UniProt Q13191)

>  <OBSERVED VALUE>
< 200 nM

$$$$
>  <COMPOUND>
COC(=O)c1ccc2oc(-c3cc(-c4ccc(F)cc4-c4nncn4C)cc(C4CC4)n3)nc2c1 [ADP-1]

>  <TARGET OR SYSTEM>
Recombinant human Cbl-b (aa 36-427) (Homo sapiens, UniProt Q13191)

>  <OBSERVED VALUE>
10000 to 50000 nM

$$$$
>  <COMPOUND>
CC(NCC1(O)CCC1)c1cc(F)c2oc(-c3cc(-c4ccc(F)cc4-c4nncn4C)cc(C4CC4)n3)nc2c1 (stereo in doubt) [AFQ-6]

>  <TARGET OR SYSTEM>
Recombinant human Cbl-b (aa 36-427) (Homo sapiens, UniProt Q13191)

>  <OBSERVED VALUE>
< 200 nM

$$$$
>  <COMPOUND>
Cn1cnnc1CC1(c2cccc(-c3cc(C(F)(F)F)cn(CCO)c3=O)c2)COC1 [ACG-3]

>  <TARGET OR SYSTEM>
Recombinant human Cbl-b (aa 36-427) (Homo sapiens, UniProt Q13191)

>  <OBSERVED VALUE>
200 to 1000 nM

$$$$
>  <COMPOUND>
Cn1cnnc1-c1cc(F)ccc1-c1cccc(-c2nc3nc(CN[C@@H]4CCC[C@@H]4O)ccc3o2)c1 [IB-7]

>  <TARGET OR SYSTEM>
Recombinant human Cbl-b (aa 36-427) (Homo sapiens, UniProt Q13191)

>  <OBSERVED VALUE>
< 200 nM

$$$$
>  <COMPOUND>
[2H]C([2H])(N[C@@H]1CCC[C@@H]1O)c1cc(C(F)(F)F)c2oc(-c3cccc(-c4ccc(F)cc4-c4nncn4C)c3)nc2c1 [HA-3]

>  <TARGET OR SYSTEM>
Recombinant human Cbl-b (aa 36-427) (Homo sapiens, UniProt Q13191)

>  <OBSERVED VALUE>
< 200 nM

$$$$
>  <COMPOUND>
COC(=O)c1cc(C(F)(F)F)c2oc(-c3cccc([C@]4(c5nncn5C)C[C@@H](C)C4)c3)nc2c1 [ADC-3]

>  <TARGET OR SYSTEM>
Recombinant human Cbl-b (aa 36-427) (Homo sapiens, UniProt Q13191)

>  <OBSERVED VALUE>
1000 to 10000 nM

$$$$
